Where do the numbers come from? From paper PMC5628898.

Test: Naringenin concentration in milk of breastfeeding mothers on naringenin-restricted diet, before and after 250 ml red grapefruit juice (HPLC after deconjugation)
Format: in vivo
Conditions: female, human, in vivo, Mean naringenin concentration in human milk
assay_readout: concentration at 3 h (nM)
Numbers only, in nM.

molecule O=C1C[C@@H](c2ccc(O)cc2)Oc2cc(O)cc(O)c21 , concentration at 3 h observed: 649

* * *

Experiment: Naringenin concentration in milk of breastfeeding mothers on naringenin-restricted diet, before and after 250 ml red grapefruit juice (HPLC after deconjugation)
Format: in vivo
Details: female, human, in vivo, Mean naringenin concentration in human milk
assay_readout: concentration at -24 h (nM)
Answers are plain numbers, in nM.

compound O=C1C[C@@H](c2ccc(O)cc2)Oc2cc(O)cc(O)c21 , concentration at -24 h observed: 844

* * *

Assay: Naringenin concentration in milk of breastfeeding mothers on naringenin-restricted diet, before and after 250 ml red grapefruit juice (HPLC after deconjugation)
Type: in vivo
Settings: female, human, in vivo, 250 ml, human milk, post-exposure segment, last points, n 11; read-out: Kel (elimination constant), median (converted)
assay_readout: k el (s⁻¹)
Numbers only, in s⁻¹.

compound O=C1C[C@@H](c2ccc(O)cc2)Oc2cc(O)cc(O)c21 [naringenin] , k el observed: 3.61e-06

* * *

Assay: Naringenin concentration in milk of breastfeeding mothers on naringenin-restricted diet, before and after 250 ml red grapefruit juice (HPLC after deconjugation)
Format: in vivo
Settings: female, human, in vivo, Mean naringenin concentration in human milk
assay_readout: concentration at 6 h (nM)
Answers are plain numbers, in nM.

molecule O=C1C[C@@H](c2ccc(O)cc2)Oc2cc(O)cc(O)c21 , concentration at 6 h observed: 650

* * *

Assay: Naringenin concentration in milk of breastfeeding mothers on naringenin-restricted diet, before and after 250 ml red grapefruit juice (HPLC after deconjugation)
Assay type: in vivo
Conditions: female, human, in vivo, 250 ml, human milk, post-exposure segment, last points, n 11; read-out: Kel (elimination constant), mean (converted)
assay_readout: k el
Units required after the number.

compound O=C1C[C@@H](c2ccc(O)cc2)Oc2cc(O)cc(O)c21 [naringenin] , k el observed: 3.89e-06 s⁻¹

* * *

Assay: Naringenin concentration in milk of breastfeeding mothers on naringenin-restricted diet, before and after 250 ml red grapefruit juice (HPLC after deconjugation)
Format: in vivo
Conditions: female, human, in vivo, Mean naringenin concentration in human milk
assay_readout: concentration at 5 h (nM)
One number for each entry, in nM.

molecule O=C1C[C@@H](c2ccc(O)cc2)Oc2cc(O)cc(O)c21 [naringenin] , concentration at 5 h observed: 704

* * *

Test: Naringenin concentration in milk of breastfeeding mothers on naringenin-restricted diet, before and after 250 ml red grapefruit juice (HPLC after deconjugation)
Type: in vivo
Conditions: female, human, in vivo, Mean naringenin concentration in human milk
assay_readout: concentration at 18 h (nM)
Numbers only, in nM.

compound O=C1C[C@@H](c2ccc(O)cc2)Oc2cc(O)cc(O)c21 [naringenin] , concentration at 18 h observed: 772

* * *

Assay: Naringenin concentration in milk of breastfeeding mothers on naringenin-restricted diet, before and after 250 ml red grapefruit juice (HPLC after deconjugation)
Type: in vivo
Settings: female, human, in vivo, Mean naringenin concentration in human milk
Source text: Prior to enrollment, each volunteer was informed about the course and aim of the study, and signed the informed consent. […] They followed the diet for a total of 5 days, refraining from eating foods containing larger quantities of naringenin, such as citrus fruits, citrus fruit juices, citrus fruit pulps, tomatoes and tomato-containing food products, aromatic herbs. […]
assay_readout: concentration at -48 h (nM)
Give bare numbers, in nM.

compound O=C1C[C@@H](c2ccc(O)cc2)Oc2cc(O)cc(O)c21 , concentration at -48 h observed: 823
